Every entry's value here was drawn from PubChem BioAssay AID2060626.

# System: 168753-222-R-J1-PDC complex spheroid viability;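 also: luminescence signal used as surrogate for viable cell amount; viability measured after seven days of drug exposure; 100% = DMSO vehicle control wells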
# assay-comment: Anticancer human tumor 168753-222-R-J1-PDC patient-derived bladder carcinoma cell line growth inhibition [CLK]
# measurement-parameters: second compound 0.316 µM; first compound 3.16 µM; active compounds read low
measured-quantity: viability, T/C (%)
Reply numerically in %, unit not repeated.

[
  {
    "molecule": "CC1COCCN1c1cc(C2(S(C)(=N)=O)CC2)nc(-c2ccnc3[nH]ccc23)n1 (configuration not stated) + CN1CCN(c2cc(C(=O)Nc3cc4cc(-c5cnn(C)c5)ccc4cn3)ccn2)CC1",
    "viability, T/C (%)": 7.38
  }
]

For the molecule CC1COCCN1c1cc(C2(S(C)(=N)=O)CC2)nc(-c2ccnc3[nH]ccc23)n1 (configuration not stated) + CNC(=O)c1ccc(Nc2nc(OC3CCCC3)c3c(-c4ccc5nc(C)oc5c4)c[nH]c3n2)c(OC)c1 , what viability, T/C is on record?
51.3

For the molecule COc1ccc([C@@H](O)c2cc(-c3ncnc4cc(N5CCOCC5)ccc34)c(F)cc2Cl)nn1 + CNC(=O)c1ccc(Nc2nc(OC3CCCC3)c3c(-c4ccc5nc(C)oc5c4)c[nH]c3n2)c(OC)c1 , what viability, T/C is on record?
20.7

For the molecule C#Cc1c(F)ccc2cc(O)cc(-c3ncc4c(N5CC6CCC(C5)N6)nc(OCC56CCCN5CC(F)C6)nc4c3F)c12 (configuration not stated) + CNC(=O)c1ccc(Nc2nc(OC3CCCC3)c3c(-c4ccc5nc(C)oc5c4)c[nH]c3n2)c(OC)c1 , what viability, T/C is on record?
67.9

For the molecule C#Cc1c(F)ccc2cc(O)cc(-c3ncc4c(N5CC6CCC(C5)N6)nc(OCC56CCCN5CC(F)C6)nc4c3F)c12 (configuration not stated) + CN1CCN(c2cc(C(=O)Nc3cc4cc(-c5cnn(C)c5)ccc4cn3)ccn2)CC1 , what viability, T/C is on record?
12.1

For the molecule Nc1ccn(C2OC(CO)C(O)C2(F)F)c(=O)n1 (configuration not stated) + CNC(=O)c1ccc(Nc2nc(OC3CCCC3)c3c(-c4ccc5nc(C)oc5c4)c[nH]c3n2)c(OC)c1 , what viability, T/C is on record?
26.8

For the molecule COc1cccc2c1C(=O)c1c(O)c3c(c(O)c1C2=O)CC(O)(C(=O)CO)CC3OC1CC(N)C(O)C(C)O1 (configuration not stated) + CN1CCN(c2cc(C(=O)Nc3cc4cc(-c5cnn(C)c5)ccc4cn3)ccn2)CC1 , what viability, T/C is on record?
0.05
